Measured values drawn from patent US20230416363A1 for this set.

# Test target: T1, hPD-1-his (human, UniProt Q15116 25-167)
# T1 construct: domain: IgV domain; monomer in solution; biotin-labelled where captured by streptavidin; also called biotin-hPD-1-his
# T1 sequence (Q15116 other isoform, or with tags, fused parts or gaps limits assumed): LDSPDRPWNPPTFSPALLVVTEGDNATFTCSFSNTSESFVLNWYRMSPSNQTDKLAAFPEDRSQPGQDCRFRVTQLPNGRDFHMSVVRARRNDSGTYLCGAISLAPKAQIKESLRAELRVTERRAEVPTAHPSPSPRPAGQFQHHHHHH
# Assay procedure: ELISA, biotin-PD-1-his on streptavidin
pEC50: −log10 of the molar value.
Each entry below carries its recorded pEC50.

{"Binder": "38A6 (antibody, V domains shown, also called 780_46) VH: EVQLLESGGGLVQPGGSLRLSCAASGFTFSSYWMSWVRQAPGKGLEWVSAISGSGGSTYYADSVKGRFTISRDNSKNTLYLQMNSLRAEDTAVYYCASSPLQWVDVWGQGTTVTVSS VL: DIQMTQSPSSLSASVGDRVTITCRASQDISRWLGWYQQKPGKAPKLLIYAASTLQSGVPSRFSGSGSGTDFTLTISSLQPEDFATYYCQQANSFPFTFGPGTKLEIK", "pEC50": 10.08}
{"Binder": "33C4 (antibody, V domains shown, also called 780_39) VH: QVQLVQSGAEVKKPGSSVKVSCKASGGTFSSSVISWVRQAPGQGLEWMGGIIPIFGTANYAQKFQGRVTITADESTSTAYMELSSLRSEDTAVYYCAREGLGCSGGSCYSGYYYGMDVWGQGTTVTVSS VL: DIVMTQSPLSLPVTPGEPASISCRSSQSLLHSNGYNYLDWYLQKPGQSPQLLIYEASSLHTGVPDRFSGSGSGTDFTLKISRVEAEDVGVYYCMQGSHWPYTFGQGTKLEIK", "pEC50": 9.88}
{"Binder": "31B1 (antibody, V domains shown, also called 780_38; 33B1 and 31B2 (apparent misprints)) VH: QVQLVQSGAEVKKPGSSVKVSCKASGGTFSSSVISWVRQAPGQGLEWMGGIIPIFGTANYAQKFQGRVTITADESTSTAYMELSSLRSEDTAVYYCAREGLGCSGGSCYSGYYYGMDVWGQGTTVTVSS VL: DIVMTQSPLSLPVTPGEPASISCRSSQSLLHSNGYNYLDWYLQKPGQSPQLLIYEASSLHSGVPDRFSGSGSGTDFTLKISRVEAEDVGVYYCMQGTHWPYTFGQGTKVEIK", "pEC50": 9.98}
{"Binder": "38B2 (antibody, V domains shown, 24H9 derivative, IgG; also called 780_54; hPD1 Ab (38B2)) VH: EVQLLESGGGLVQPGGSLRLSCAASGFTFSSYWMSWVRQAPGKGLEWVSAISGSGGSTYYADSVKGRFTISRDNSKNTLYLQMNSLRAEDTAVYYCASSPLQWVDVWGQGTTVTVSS VL: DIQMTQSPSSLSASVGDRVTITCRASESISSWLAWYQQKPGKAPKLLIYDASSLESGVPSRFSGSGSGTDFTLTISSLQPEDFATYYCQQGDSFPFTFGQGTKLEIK", "pEC50": 10.09}
